# melting point per entry

Compound: CC(C)C1=C(O)C(=O)C2=C(CC3OC(=O)C4(C)CCC=C(C2)C34)C1=O (stereo not shown) [Compound 7, 7,20-Dihydroanastomosine]
melting point: 223 to 227 °C
//
Compound: CC(C)C1=C(O)C(=O)C2=CC3=CCCC4(C)C(=O)OC(C=C2C1=O)C34 (stereo not shown) [Compound 6, Anastomosine]
melting point: 220 to 224 °C
//
Compound: CC(C)c1c(O)c(O)c2c(c1O)C(=O)CC1C3(CCCC1(C)C(=O)O3)C2 (stereo not shown) [Compound 4, 6,7,11,14-Tetrahydro-7-oxoicetexone]
melting point: 130 to 135 °C
//
Compound: CC(=O)OC1CC2C3(CCCC2(C)C(=O)O3)CC2=C1C(=O)C(C(C)C)=C(O)C2=O (stereo not drawn) [Compound 3, 7α-Acetoxy-6,7-dihydroicetexone]
melting point: 110 to 115 °C

###

- System: MCF-7 (human mammary adenocarcinoma)
- Assay summary: Sulforhodamine B (SRB) cytotoxicity assay, MCF-7
- Format: cell-based
- Condition notes: Homo sapiens, MCF7; primary screening at 50.0 μM; mean n = 2; NC = No cytotoxic; read-out: Antiproliferative activity (%), MCF-7
Observed property: inhibition at 50 µM (%)

Molecule: CC(C)c1c(O)c(O)c2c(c1O)C(=O)CC1C3(CCCC1(C)C(=O)O3)C2 (stereo not shown) [Compound 4, 6,7,11,14-Tetrahydro-7-oxoicetexone]
Experimental result: 99

Molecule: CC(C)C1=C(O)C(=O)C2=C(C1=O)C(O)CC1C3(C)CCCC21C(O)OC3 (stereo not shown)
Experimental result: 14.7

Molecule: CC(C)C1=C(O)C(=O)C2=C(CC3OC(=O)C4(C)CCC=C(C2)C34)C1=O (stereo not shown) [Compound 7, 7,20-Dihydroanastomosine]
Experimental result: 62.6

Molecule: CC(C)C1=C(O)C(=O)C2=C(C=C[C@@H]3[C@]4(CCC[C@]3(C)C(=O)O4)C2)C1=O [Compound 8, icetexone]
Experimental result: 71.6

###

- System: SKLU-1 (human lung adenocarcinoma)
- Assay summary: Sulforhodamine B (SRB) cytotoxicity assay, SKLU-1
- Type: cell-based
- Condition notes: Homo sapiens, SK-LU-1; primary screening at 50.0 μM; mean n = 2; NC = No cytotoxic; read-out: Antiproliferative activity (%), SKLU-1
Observed property: inhibition at 50 µM (%)

Compound: CC(C)C1=C(O)C(=O)C2=C(C1=O)C(O)CC1C3(C)CCCC21C(O)OC3 (stereo not shown) [Compound 10, conacytone]
Observed property: inhibition at 50 µM
Experimental result: 11.8
//
Compound: CC(C)C1=C(O)C(=O)C2=C(C=C[C@@H]3[C@]4(CCC[C@]3(C)C(=O)O4)C2)C1=O [Compound 8, icetexone]
Observed property: inhibition at 50 µM
Experimental result: 52.9
//
Compound: CC(C)c1c(O)c(O)c2c(c1O)C(=O)CC1C3(CCCC1(C)C(=O)O3)C2 (stereo not shown) [Compound 4, 6,7,11,14-Tetrahydro-7-oxoicetexone]
Observed property: inhibition at 50 µM
Experimental result: 96.9
//
Compound: CC(C)C1=C(O)C(=O)C2=C(CC3OC(=O)C4(C)CCC=C(C2)C34)C1=O (stereo not shown) [Compound 7, 7,20-Dihydroanastomosine]
Observed property: inhibition at 50 µM
Experimental result: 46.5

###

- Tested on: TPA-induced ear edema
- Assay summary: TPA-induced ear edema test in mice
- Assay type: in vivo
- Condition notes: mice CD-1, 1.0 μmol ear^-1 topical, 4 h after TPA; mean ± SEM

Molecule: COc1ccc2c(c1)c(CC(=O)O)c(C)n2C(=O)c1ccc(Cl)cc1 [Indometacin, Indomethacin, reference compound]
Unit label: mg
Edema: 2.88
--
Molecule: Cc1ccc(-c2cc(C(F)(F)F)nn2-c2ccc(S(N)(=O)=O)cc2)cc1 [Celecoxib, celecoxib, reference compound]
Unit label: mg
Edema: 6.94
--
Molecule: CC(C)C1=C(O)C(=O)C2=CC3=CCCC4(C)C(=O)OC(C=C2C1=O)C34 (stereo not drawn)
Unit label: mg
Edema: 15.97
--
Molecule: CC(C)C1=C(O)C(=O)C2=C(CC3OC(=O)C4(C)CCC=C(C2)C34)C1=O (stereo not drawn) [Compound 7, 7,20-Dihydroanastomosine]
Unit label: mg
Edema: 15.50
--
Molecule: CC(=O)OC1CC2C3(CCCC2(C)C(=O)O3)CC2=C1C(=O)C(C(C)C)=C(O)C2=O (stereo not drawn) [Compound 3, 7α-Acetoxy-6,7-dihydroicetexone]
Unit label: mg
Edema: 9.87
--
Molecule: CC(C)C1=C(O)C(=O)C2=C(C1=O)C(O)CC1C3(C)CCCC21C(O)OC3 (stereo not drawn)
Unit label: mg
Edema: 11.77
